Assayed System: Bruton's Tyrosine Kinase (BTK), inactivated state (Homo sapiens (Human))
Assay Name: Bruton's Tyrosine Kinase (BTK) Inhibition TR-FRET (Time Resolved FRET) competition assay
Test Context: competition with Kinase Tracer 178 for BTK-Eu; plates incubated 18-24 h at 14° C.
Rule: IC50 below 300 nM gives Met, anything at or above gives Not met.

| Compound | Category Label |
| --- | --- |
| CCC(=O)C(=O)Nc1cccc(-c2c[nH]c3ncc(NC(=O)OCc4ccccc4Cl)cc23)c1 [Compound 15] | Met |
| CCC(=O)C(=O)N1CC=C(c2c[nH]c3ncc(NC(=O)OCc4ccccc4Cl)cc23)CC1 [Compound 25] | Not met |
| CC(=O)C(=O)N1CC=C(c2c[nH]c3ncc(NC(=O)OCc4cccc(C#N)c4)cc23)CC1 [Compound 29] | Not met |
| CC(C)OC(=O)Nc1cnc2[nH]cc(-c3cccc(NC(=O)CC#N)c3)c2c1 [Compound 22] | Not met |
| C=CC(=O)Nc1cccc(-c2c[nH]c3ncc(NC(=O)OC(C)C)cc23)c1 [Compound 3] | Met |
| CN(C)C/C=C/C(=O)Nc1ccccc1-c1c[nH]c2ncc(NC(=O)OCc3ccccc3)cc12 [Compound 23] | Not met |

---

Assayed System: Bruton's Tyrosine Kinase (BTK), inactivated state (Homo sapiens (Human), UniProt Q06187)
Sequence (Q06187 whole entry): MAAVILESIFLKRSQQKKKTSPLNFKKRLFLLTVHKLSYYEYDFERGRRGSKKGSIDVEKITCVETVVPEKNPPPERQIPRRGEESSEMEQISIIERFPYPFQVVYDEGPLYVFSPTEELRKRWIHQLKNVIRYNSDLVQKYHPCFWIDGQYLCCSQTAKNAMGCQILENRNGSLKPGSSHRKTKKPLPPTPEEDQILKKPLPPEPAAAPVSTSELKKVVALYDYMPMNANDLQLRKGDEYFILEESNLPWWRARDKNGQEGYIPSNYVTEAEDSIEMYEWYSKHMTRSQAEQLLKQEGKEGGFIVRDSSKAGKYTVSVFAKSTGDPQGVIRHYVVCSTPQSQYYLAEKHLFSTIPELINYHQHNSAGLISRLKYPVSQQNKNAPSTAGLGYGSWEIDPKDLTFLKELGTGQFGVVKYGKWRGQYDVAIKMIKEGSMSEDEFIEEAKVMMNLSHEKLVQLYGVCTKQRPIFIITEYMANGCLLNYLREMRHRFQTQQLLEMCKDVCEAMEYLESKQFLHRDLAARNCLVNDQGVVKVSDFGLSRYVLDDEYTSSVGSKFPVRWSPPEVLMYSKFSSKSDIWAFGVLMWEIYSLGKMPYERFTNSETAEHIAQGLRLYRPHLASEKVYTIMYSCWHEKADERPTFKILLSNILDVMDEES
Assay Name: Bruton's Tyrosine Kinase (BTK) Inhibition TR-FRET (Time Resolved FRET) competition assay
Test Context: competition with Kinase Tracer 178 for BTK-Eu; plates incubated 18-24 h at 14° C.
pIC50: −log10 of the molar value.
Recorded Endpoint: pIC50

| Compound | Assayed System | Recorded Endpoint | Endpoint Result |
| --- | --- | --- | --- |
| CC(=O)C(=O)N1CC=C(c2c[nH]c3ncc(NC(=O)OCc4ccccc4Cl)cc23)CC1 [Compound 24] | Bruton's Tyrosine Kinase (BTK), inactivated state (Homo sapiens (Human), UniProt Q06187) | pIC50 | 6.78 |
| CCC(=O)C(=O)Nc1cccc(-c2c[nH]c3ncc(NC(=O)OCc4cccc(F)c4)cc23)c1 [Compound 16] | Bruton's Tyrosine Kinase (BTK), inactivated state (Homo sapiens (Human), UniProt Q06187) | pIC50 | 7.38 |
| C=CC(=O)N1CCC(c2c[nH]c3ncc(NC(=O)OC(C)C)cc23)CC1 [Compound 32] | Bruton's Tyrosine Kinase (BTK), inactivated state (Homo sapiens (Human), UniProt Q06187) | pIC50 | 7.57 |
| CN(C)C/C=C/C(=O)Nc1cccc(-c2c[nH]c3ncc(NC(=O)OCc4ccccc4)cc23)c1 [Compound 1] | Bruton's Tyrosine Kinase (BTK), inactivated state (Homo sapiens (Human), UniProt Q06187) | pIC50 | 8.15 |
| CC(=O)C(=O)Nc1cccc(-c2c[nH]c3ncc(NC(=O)OCc4cccc(C#N)c4)cc23)c1 [Compound 20] | Bruton's Tyrosine Kinase (BTK), inactivated state (Homo sapiens (Human), UniProt Q06187) | pIC50 | 6.86 |
| C=C(C(=O)Nc1cccc(-c2c[nH]c3ncc(NC(=O)OCc4cccc(F)c4)cc23)c1)C(F)(F)F [Compound 18] | Bruton's Tyrosine Kinase (BTK), inactivated state (Homo sapiens (Human), UniProt Q06187) | pIC50 | 6.91 |
| C=CC(=O)N(C)c1cccc(-c2c[nH]c3ncc(NC(=O)OC(C)C)cc23)c1 [Compound 6] | Bruton's Tyrosine Kinase (BTK), inactivated state (Homo sapiens (Human), UniProt Q06187) | pIC50 | 7.62 |
| CCC(=O)C(=O)N1CC=C(c2c[nH]c3ncc(NC(=O)OCc4ccccc4)cc23)CC1 [Compound 27] | Bruton's Tyrosine Kinase (BTK), inactivated state (Homo sapiens (Human), UniProt Q06187) | pIC50 | 6.54 |
